# METHOD_NOTES: Apparent permeability from apical to basolateral side in MDCK cells at 10 uM
# Assay type: ADME, cell-based, Canis lupus familiaris
# CONDITION_NOTES: dog
VALUE_TYPE: Papp A→B at 10 µM

1. CC(C)(C)c1c(C(=O)NC2C3CC4CC(C3)CC2C4)cnn1-c1ccc(C(=O)O)cc1 (stereo unspecified) = 7.3 ×10⁻⁶ cm/s

---

# METHOD_NOTES: Oral bioavailability in dog at 1 and 3 mg/kg
# Assay type: ADME, organism-based, Canis lupus familiaris
# CONDITION_NOTES: in vivo
VALUE_TYPE: bioavailability (%)

1. CC(C)(C)c1c(C(=O)NC2C3CC4CC(C3)CC2C4)cnn1-c1ccc(C(=O)O)cc1 (stereo unspecified) = 45

Data provenance: ChEMBL document CHEMBL2177022
